Values from patent US5760032A

Provide the reported IC50 of each item.
Target: CCK-A receptor (Pancreas) (Rattus norvegicus, UniProt P30551)
Construct: Whole pancreas was removed from male Wister rats; from tissue; host or cells: rat pancreas membranes (male Wistar rats)
Sequence (P30551 1-444): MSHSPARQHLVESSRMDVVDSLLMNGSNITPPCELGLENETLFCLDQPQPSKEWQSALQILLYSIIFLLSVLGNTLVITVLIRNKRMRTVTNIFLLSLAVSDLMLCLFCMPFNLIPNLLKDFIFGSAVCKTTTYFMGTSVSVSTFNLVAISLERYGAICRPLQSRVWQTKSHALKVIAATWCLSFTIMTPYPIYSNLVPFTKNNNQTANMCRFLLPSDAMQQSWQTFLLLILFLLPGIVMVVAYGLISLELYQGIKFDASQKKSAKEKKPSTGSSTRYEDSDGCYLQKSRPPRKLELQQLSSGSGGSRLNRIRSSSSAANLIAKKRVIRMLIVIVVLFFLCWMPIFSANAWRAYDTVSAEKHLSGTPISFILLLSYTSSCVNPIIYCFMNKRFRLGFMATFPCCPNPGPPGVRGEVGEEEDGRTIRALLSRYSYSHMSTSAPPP
Experiment: Binding to CCK receptor, pancreas membranes, inhibition of 125I-CCK-8 specific binding
Settings: rat pancreas membranes; 125I-CCK-8; pH 6.5; 20° C., 30 minutes; read-out: Pancreas (CCK-A) IC50
Numbers only, in nM.

Answered cases to consult:
{"Structure notation": "CCc1cc(C(=O)c2ccccc2Cl)c(-n2c(C)nnc2CNC(=O)c2cc3ccccc3n2CC(=O)O)s1", "Result type": "IC50", "Unit": "nM", "Meas value": 10.6}
{"Structure notation": "CCc1cc(C(=O)c2ccccc2Cl)c(-n2c(C)nnc2CNC(=O)c2cc3ccccc3[nH]2)s1", "Result type": "IC50", "Unit": "nM", "Meas value": 3.7}
{"Structure notation": "CCc1cc(C(=O)c2ccccc2Cl)c(-n2c(C)nnc2CNC(=O)c2ccc(Cl)cc2N)s1", "Result type": "IC50", "Unit": "nM", "Meas value": 7.6}
{"Structure notation": "CCc1cc(C(=O)c2ccccc2Cl)c(-n2c(C)nnc2CNC(=O)c2ccc(Cl)c(Cl)c2)s1", "Result type": "IC50", "Unit": "nM", "Meas value": 7.5}
{"Structure notation": "Cc1nnc(CNC(=O)c2cc3ccccc3[nH]2)n1-c1sc(C(=O)O)cc1C(=O)c1ccccc1Cl", "Result type": "IC50", "Unit": "nM", "Meas value": 6.6}
{"Structure notation": "CCc1cc(C(=O)c2ccccc2Cl)c(-n2c(C)nnc2CNC(=O)Nc2cccc(C)c2)s1", "Result type": "IC50", "Unit": "nM", "Meas value": 5.6}
{"Structure notation": "CCc1cc(C(=O)c2ccccc2Cl)c(-n2c(Br)nnc2CNC(=O)c2cc3ccccc3[nH]2)s1", "Result type": "IC50", "Unit": "nM", "Meas value": 3.2}

Under CCK-A receptor (Pancreas) (Rattus norvegicus, UniProt P30551): report IC50 of CCc1cc(C(=O)c2ccccc2Cl)c(-n2c(C)nnc2CNC(=O)Nc2cccc(OC)c2)s1 .
4.8
